The reported numbers originate from patent US20030091584A1.

molecular target: Bac-F; experiment: BIAcore, mAb vs Bac-F (1:1)
Record form. Attribute: koff. Fill in for each entry.
One number for each entry, in s⁻¹.

# annotated cases, reported koff shown
binder: A13c4 (monoclonal antibody) (antibody, V domains shown) VH: QVTLRESGPALVKPTQTLTLTCTFSGFSLSTAGMSVGWIRQPPGKALEWLADIWWDGKKSYNPSLKDRLTISKDTSKNQVVLKVTNMDPADTATYYCARDMIFNFYFDVWGQGTTVTVSS VL: DIQMTQSPSTLSASVGDRVTITCSLSSRVGYMHWYQQKPGKAPKLLIYDTMYQSSGVPSRFSGSGSGTEFTLTISSLQPDDFATYYCFQGSGYPFTFGGGTKVEIK
parameter: koff
display_unit: s⁻¹
recorded_value: 3.96e-05
--
binder: A8c7 (monoclonal antibody) (antibody, V domains shown) VH: QVTLRESGPALVKPTQTLTLTCTFSGFSLSTAGMSVGWIRQPPGKALEWLADIWWDDKKSYNPSLKDRLTISKDTSKNQVVLKVTNMDPADTATYYCARDMIFNWYFDVWGQGTTVTVSS VL: DIQMTQSPSTLSASVGDRVTITCSASSRVGYMHWYQQKPGKAPKLLIYDTRYQSSGVPSRFSGSGSGTEFTLTISSLQPDDFATYYCFQGSGYPFTFGGGTKLEIK
parameter: koff
display_unit: s⁻¹
recorded_value: 8.75e-05

Entry P12f4 (monoclonal antibody) (antibody, V domains shown) VH: QVTLRESGPALVKPTQTLTLTCTFSGFSLSTPGMSVGWIRQPPGKALEWLADIWWDGKKHYNPSLKDRLTISKDTSKNQVVLKVTNMDPADTATYYCARDMIFNFYFDVWGQGTTVTVSS VL: DIQMTQSPSTLSASVGDRVTITCSLSSRVGYMHWYQQKPGKAPKLLIYDTRGLPSGVPSRFSGSGSGTEFTLTISSLQPDDFATYYCFQGSGYPFTFGGGTKVEIK ; koff = 5.55e-05
